- System: Rattus norvegicus
- measurement_protocol: Myotoxicity in po dosed weanling Sprague-Dawley rat assessed as drug dose causing >[…] increase in plasma creatine kinase activity relative to control
- Format: organism-based
- protocol_conditions: in vivo
test_readout: Activity

COCc1c(C(C)C)nc(C(C)C)c(/C=C/[C@@H](O)C[C@@H](O)CC(=O)O)c1-c1ccc(F)cc1 [CERIVASTATIN]	< 1 mg/kg
CC(C)c1nc(N(C)c2ncnn2C)nc(-c2ccc(F)cc2)c1/C=C/[C@@H](O)C[C@@H](O)CC(=O)[O-].[Na+]	> 50 mg/kg

# ---- query molecule ----
Exam item: Would you mind telling me what Activity value was observed for CC[C@H](C)C(=O)O[C@H]1C[C@H](O)C=C2C=C[C@H](C)[C@H](CC[C@@H](O)C[C@@H](O)CC(=O)O)[C@H]21 [PRAVASTATIN] ?
Marked response: > 500 mg/kg

---

- measurement_protocol: Partition coefficient, log P by reverse phase HPLC method
- Assay type: physicochemical
- protocol_conditions: octanol/water; read-out: logP
Assign Y whenever logP does not fall below 2; assign N whenever it does.

CC(C)c1nc(Nc2cc(C(=O)O)nn2C)nc(-c2ccc(F)cc2)c1/C=C/[C@@H](O)C[C@@H](O)CC(=O)O	N
CC(C)c1nc(N(C)c2ncnn2C)nc(-c2ccc(F)cc2)c1/C=C/[C@@H](O)C[C@@H](O)CC(=O)O	Y
CC(C)c1nc(Nc2ccon2)nc(-c2ccc(F)cc2)c1/C=C/[C@@H](O)C[C@@H](O)CC(=O)O	Y
CC(C)c1nc(Nc2nsc(-c3ccccc3)n2)nc(-c2ccc(F)cc2)c1/C=C/[C@@H](O)C[C@@H](O)CC(=O)O	Y
CC(C)c1nc(Nc2ccn(C)n2)nc(-c2ccc(F)cc2)c1/C=C/[C@@H](O)C[C@@H](O)CC(=O)O	Y

Exam item: Hi, just wondering whether CC(C)c1nc(N(c2ccon2)S(C)(=O)=O)nc(-c2ccc(F)cc2)c1/C=C/[C@@H](O)C[C@@H](O)CC(=O)O shows logP of 2 or higher.
Marked response: N
